This listing pairs compounds with measured cell viability.
Tested on: OCI-AML2;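 further: after 48 h exposure read by CellTiter-Glo luminescence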
TEST METHOD NOTES: cell viability relative to vehicle control; higher = less cytotoxic
TEST PARAMETERS: 10 µM; SRSF2 genotype: wt/wt
Numeric answer only, unit % assumed.

COMPOUND	STUDY SYSTEM	cell viability, %
CCn1c(N)c(C(=O)NC)c(=O)c2ccc(C#CC(C)(O)COC)nc21 (stereo unspecified)	OCI-AML2	64.6

Entry O=C(O)/C=C/c1ccc(O)c(O)c1 [Caffeic acid] , cell viability reported as 92.7

Entry Oc1cc(O)c2c(c1)OC(c1ccc(O)c(O)c1)C(O)C2 (single isomer, unassigned; (+)) [(+)-Catechin hydrate] , cell viability reported as 108

Entry O=C(O)Cc1ccc(O)cc1 [4-Hydroxyphenylacetic acid] , cell viability reported as 108

Entry CC1(C)S[C@@H]2[C@H](NC(=O)[C@H](N)c3ccccc3)C(=O)N2[C@H]1C(=O)OCOC(=O)[C@@H]1N2C(=O)C[C@H]2S(=O)(=O)C1(C)C [Sultamicillin] , cell viability reported as 116

Entry O=C(O)CCCc1c[nH]c2ccccc12 [3-Indolebutyric acid (IBA)] , cell viability reported as 106
